Numbers sourced from ChEMBL document CHEMBL1135577.

# Tested on: A2780
# assay_text: Tested for colchicine binding inhibition, using human ovarian cancer cell lines (at 5 uM )
# Assay type: functional
Returns 1 (yes) if the recorded inhibition at 5 µM is greater than or equal to 10%, and 0 (no) otherwise.

{"molecule": "C=CC[C@@H](CC/C(C)=C/C=C\\CC/C=C\\[C@@H]1CSC([C@@H]2C[C@@H]2C)=N1)OC", "discrete_label": "1 (yes)"}
{"molecule": "C=CC[C@@H](CC/C=C/C=C/CC/C=C\\[C@@H]1CSC([C@@H]2C[C@@H]2C)=N1)OC", "discrete_label": "1 (yes)"}
{"molecule": "C=CC[C@@H](CC/C(C)=C/C=C/CCCO)OC", "discrete_label": "0 (no)"}
{"molecule": "C=CC[C@@H](CC/C(C)=C/C=C/CC/C=C\\[C@H]1CSC([C@@H]2C[C@@H]2C)=N1)OC", "discrete_label": "0 (no)"}
{"molecule": "C=CC[C@H](O)CC/C(C)=C/C=C/CC/C=C\\C1CSC([C@@H]2C[C@@H]2C)=N1 (some centres undefined)", "discrete_label": "1 (yes)"}
{"molecule": "C=CC[C@@H](CC/C(C)=C/C=C/CC/C=C\\[C@H](CSC)NC(C)=O)OC", "discrete_label": "1 (yes)"}
{"molecule": "C=CC[C@@H](CC/C(C)=C/C=C/CC/C=C\\[C@@H]1CSC([C@@H]2C[C@@H]2C)=N1)OC(=O)c1ccccc1", "discrete_label": "0 (no)"}
{"molecule": "C=CC[C@@H](CC/C(C)=C/C=C/CC/C=C\\[C@@H]1CSC(C(C)(C)C)=N1)OC", "discrete_label": "1 (yes)"}
{"molecule": "C=CC[C@@H](CC/C(C)=C/C=C/CC/C=C\\c1csc([C@@H]2C[C@@H]2C)n1)OC", "discrete_label": "1 (yes)"}

###

Measured inhibition at 5 µM by item
# Tested on: A2780
# assay_text: Tested for colchicine binding inhibition, using human ovarian cancer cell lines (at 5 uM )
# Assay type: functional

{"compound": "C=CC[C@@H](CC/C(C)=C/C=C/CC/C=C\\c1csc(C(C)(C)C)n1)OC", "system": "A2780", "unit_tag": "%", "bound_sign": "=", "inhibition at 5 µM": 38}
{"compound": "CCC[C@@H](CC/C(C)=C/C=C/CC/C=C\\[C@@H]1CSC([C@@H]2C[C@@H]2C)=N1)OC", "system": "A2780", "unit_tag": "%", "bound_sign": "=", "inhibition at 5 µM": 85}
{"compound": "C=CC[C@@H](CC/C(C)=C/C=C/CC/C=C\\[C@@H]1CSC([C@@H]2C[C@@H]2C)=N1)OCC(F)(F)C(F)(F)C(F)(F)F", "system": "A2780", "unit_tag": "%", "bound_sign": "=", "inhibition at 5 µM": 12}
{"compound": "C=CC[C@@H](CC/C(C)=C/C=C/CC/C=C\\[C@H](CSC(=O)[C@@H]1C[C@@H]1C)NC(C)=O)OC", "system": "A2780", "unit_tag": "%", "bound_sign": "=", "inhibition at 5 µM": 9}
{"compound": "C=CC[C@@H](CC/C(C)=C\\C=C\\CC/C=C\\[C@@H]1CSC([C@@H]2C[C@@H]2C)=N1)OC [CURACIN C]", "system": "A2780", "unit_tag": "%", "bound_sign": "=", "inhibition at 5 µM": 10}
{"compound": "C=CC[C@@H](CC/C(C)=C/C=C/CC/C=C\\[C@@H]1CSC([C@@H]2C[C@@H]2C)=N1)OCOC", "system": "A2780", "unit_tag": "%", "bound_sign": "=", "inhibition at 5 µM": 81}
{"compound": "COc1cc(CCCCCCCC(C)CCC(O)c2cccs2)cc(OC)c1OC (stereo not drawn)", "system": "A2780", "unit_tag": "%", "bound_sign": "<", "inhibition at 5 µM": 10}
{"compound": "C=CCCC1=N[C@H](/C=C\\CC/C=C/C=C(\\C)CC[C@H](CC=C)OC)CS1", "system": "A2780", "unit_tag": "%", "bound_sign": "=", "inhibition at 5 µM": 83}
